# assayed.system: T1, integrin αvβ3 (human, UniProt P06756)
# T1 chain 1: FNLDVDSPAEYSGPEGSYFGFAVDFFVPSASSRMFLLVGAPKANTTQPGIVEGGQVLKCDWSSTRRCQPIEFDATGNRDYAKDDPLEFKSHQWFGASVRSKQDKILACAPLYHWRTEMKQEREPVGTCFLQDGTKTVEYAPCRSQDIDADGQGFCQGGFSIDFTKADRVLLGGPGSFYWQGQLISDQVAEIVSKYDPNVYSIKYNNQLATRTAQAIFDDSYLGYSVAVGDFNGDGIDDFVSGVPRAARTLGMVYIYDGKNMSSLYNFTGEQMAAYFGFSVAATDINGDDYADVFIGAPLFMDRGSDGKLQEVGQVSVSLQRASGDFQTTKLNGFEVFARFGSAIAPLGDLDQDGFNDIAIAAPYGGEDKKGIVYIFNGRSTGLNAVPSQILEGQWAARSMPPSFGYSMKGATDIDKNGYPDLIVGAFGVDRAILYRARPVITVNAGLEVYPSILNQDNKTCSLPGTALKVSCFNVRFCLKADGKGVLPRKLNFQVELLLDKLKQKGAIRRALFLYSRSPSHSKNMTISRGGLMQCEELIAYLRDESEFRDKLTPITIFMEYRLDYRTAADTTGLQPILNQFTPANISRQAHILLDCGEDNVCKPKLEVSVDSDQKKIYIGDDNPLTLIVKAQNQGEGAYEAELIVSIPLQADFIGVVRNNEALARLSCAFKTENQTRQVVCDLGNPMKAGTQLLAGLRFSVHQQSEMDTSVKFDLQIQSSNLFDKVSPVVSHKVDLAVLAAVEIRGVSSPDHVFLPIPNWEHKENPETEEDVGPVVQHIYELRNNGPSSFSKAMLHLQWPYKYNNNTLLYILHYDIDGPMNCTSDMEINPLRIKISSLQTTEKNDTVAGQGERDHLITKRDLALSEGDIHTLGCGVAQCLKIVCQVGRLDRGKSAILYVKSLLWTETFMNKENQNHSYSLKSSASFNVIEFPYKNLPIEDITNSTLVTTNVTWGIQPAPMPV
# T1 chain 2: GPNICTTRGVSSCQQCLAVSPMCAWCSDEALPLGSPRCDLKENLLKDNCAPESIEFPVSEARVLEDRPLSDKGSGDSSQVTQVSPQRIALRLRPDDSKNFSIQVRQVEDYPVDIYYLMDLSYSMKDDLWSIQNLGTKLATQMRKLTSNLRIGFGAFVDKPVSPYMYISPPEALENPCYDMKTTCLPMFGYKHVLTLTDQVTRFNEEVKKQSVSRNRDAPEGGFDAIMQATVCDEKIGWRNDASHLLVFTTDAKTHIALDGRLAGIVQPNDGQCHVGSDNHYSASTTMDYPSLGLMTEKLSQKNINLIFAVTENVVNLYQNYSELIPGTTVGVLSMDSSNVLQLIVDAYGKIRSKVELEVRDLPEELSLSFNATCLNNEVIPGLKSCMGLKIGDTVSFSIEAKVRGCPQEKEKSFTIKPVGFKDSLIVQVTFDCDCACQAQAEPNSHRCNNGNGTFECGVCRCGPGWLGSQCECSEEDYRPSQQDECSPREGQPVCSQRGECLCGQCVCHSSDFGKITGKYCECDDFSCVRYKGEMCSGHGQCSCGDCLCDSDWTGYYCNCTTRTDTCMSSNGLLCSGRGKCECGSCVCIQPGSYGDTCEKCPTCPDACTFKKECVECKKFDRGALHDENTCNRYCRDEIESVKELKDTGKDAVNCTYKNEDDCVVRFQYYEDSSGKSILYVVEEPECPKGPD
# test.summary: competition
Where no end group is shown, it is not given here. Side-chain parts run from the residue outwards. [ ]: non-standard residue; d: D form. The star is where a group is joined. BODIPY(FL) = CC1=CC(C)=[N+]2C1=Cc1ccc(CCC(=O)*)n1[B-]2(F)F; NMeK = CN[C@@H](CCCCN)C(=O)O; Ahx = NCCCCCC(=O)O; BDPFL = dye
Note to self: use criterion met only for IC50 readings below 200 nM; a reading exactly at 200 nM still gets criterion not met.

Use these answered entries as a reference point.
binder	category.label
RGDL[dP][NMeK]([Gly-Pro-Pro-Pro-Gly-BODIPY(FL)])GL (not fully specified (bridges); also: cyclic, closure not given here) [Compound 9e (9-G(P)3G-BDPFL)]	criterion not met
RGDL[dP][NMeK]([(PEG)5-BODIPY(FL)])GL (not fully specified (bridges); also: cyclic, closure not given here) [Compound 9d (9-(PEG)5-BDPFL)]	criterion met
cyclo(RGDL[dP][NMeK](BDPFL)GL) [Compound 9a (9-BDPFL)]	criterion not met

Lookup: Problem: For the binder cyclo(RGD[dF]K) (also: Ahx-BDPFL conjugate, attachment site not given here) [Compound 13 (Table 3) c(RGDfK)-Ahx-BDPFL] , is IC50 under 200 nM?
Found: criterion met

Lookup: Problem: For the binder cyclo(RGDL[dP][NMeK]([Ahx-BDPFL])GL) [Compound 9b (9-Ahx-BDPFL)] , is IC50 under 200 nM?
Found: criterion not met

Lookup: Problem: For the binder cyclo(RGDL[dP][NMeK]([Gly-Pro-Pro-Pro-Pro-Pro-Pro-Gly-BDPFL])GL) [Compound 9f (9-G(P)6G-BDPFL)] , is IC50 under 200 nM?
Found: criterion met

Lookup: Problem: For the binder cyclo(GLRVDL[dP][NMeK]([Ahx-BDPFL])) [Compound 11 (Table 3) c(GLRVDLp(NMe)K)-Ahx-BDPFL] , is IC50 under 200 nM?
Found: criterion not met

Lookup: Problem: For the binder cyclo(RGDL[dP][NMeK]([Ahx-Ahx-BDPFL])GL) [Compound 9c (9-Ahx-Ahx-BDPFL)] , is IC50 under 200 nM?
Found: criterion not met

Measured values drawn from patent US20200087347 for this set.
